Experiment: Pharmacokinetics in male SD rats (oral and i.v., various formulations)
Assay type: in vivo, rat
Details: male, SD, rat, plasma, po, 10 mg/kg, 10 mpk po, Formulation Example 4; NMP/ethanol/PEG200/saline vehicle
Assay Readout: AUC(0-inf)

// lookup AUC(0-inf) for COc1ccc(-c2cc(=O)c3c(O)c(OC)c(OCCN4CCNC(=O)C4)cc3o2)cc1OC
46.4 ng·h/mL

----------
Assay: Pharmacokinetics in male SD rats (oral and i.v., various formulations)
Assay type: in vivo, rat
Settings: male, SD, rat, plasma, po, 10 mg/kg, rat, 10 mpk po, Formulation Example 2; in Tween80:0.5% CMC aqueous vehicle
Assay Readout: Tmax (min)
API: value field is a number in min; no unit string.

// lookup Tmax for COc1ccc(-c2cc(=O)c3c(O)c(OC)c(OCCN4CCNC(=O)C4)cc3o2)cc1OC [Compound 1]
24

----------
Assay: Pharmacokinetics in male SD rats (oral and i.v., various formulations)
Type: in vivo, rat
Details: male, SD, rat, plasma, po, 200 mg/kg, rat, 200 mpk po, Formulation Example 2; read-out: AUC (0-24)
Experimental: To examine the pharmacokinetics of the compound after oral administration, rat models were used. Male SD rats (weighed 250 to 300 g) were divided into several groups, each consisting of 3 rats, […], after which the amount of the compound present in the plasma was measured with the passage of time. […]
Assay Readout: AUC(0-t) (µg·h/mL)
API: value field is a number in µg·h/mL; no unit string.

// lookup AUC(0-t) for COc1ccc(-c2cc(=O)c3c(O)c(OC)c(OCCN4CCNC(=O)C4)cc3o2)cc1OC
0.42

----------
Assay: Pharmacokinetics in male SD rats (oral and i.v., various formulations)
Format: in vivo, rat
Conditions: male, SD, plasma, iv, 1 mg/kg; rat, 1 mpk i.v, Formulation Example 1; read-out: t1/2 (converted)
Assay Readout: half-life (min)
API: value field is a number in min; no unit string.

// lookup half-life for COc1ccc(-c2cc(=O)c3c(O)c(OC)c(OCCN4CCNC(=O)C4)cc3o2)cc1OC [Compound 1]
22.8

----------
Assay: Pharmacokinetics in male SD rats (oral and i.v., various formulations)
Assay type: in vivo, rat
Settings: male, SD, rat, plasma, po, 10 mg/kg, rat, 10 mpk po, Formulation Example 5; in 30% HPCD aqueous solution; read-out: AUC(0-t)
Procedure: To examine the pharmacokinetics of the compound after oral administration, rat models were used. Male SD rats (weighed 250 to 300 g) were divided into several groups, each consisting of 3 rats, […], after which the amount of the compound present in the plasma was measured with the passage of time. […]
Assay Readout: AUC(0-t) (ng·h/mL)
API: value field is a number in ng·h/mL; no unit string.

// lookup AUC(0-t) for COc1ccc(-c2cc(=O)c3c(O)c(OC)c(OCCN4CCNC(=O)C4)cc3o2)cc1OC [Compound 1]
1000

----------
Test: Pharmacokinetics in male SD rats (oral and i.v., various formulations)
Format: in vivo, rat
Conditions: male, SD, plasma, 10 mg/kg; rat, 10 mpk po, Formulation Example 5
Assay Readout: MRT inf (h)
API: value field is a number in h; no unit string.

// lookup MRT inf for COc1ccc(-c2cc(=O)c3c(O)c(OC)c(OCCN4CCNC(=O)C4)cc3o2)cc1OC
3.2
